System: SK-MEL-5 melanoma
procedure-details: NCI tumour cell line growth inhibition, 48 h
Mark Y for reported TGI of 30 µM or greater; mark N for anything smaller.

# compound, system, assigned-label
records = [
    ("CCCCCCCCCCCCCCCCOP(=O)(O)OCC(N)C(=O)O (stereo unspecified)", "SK-MEL-5 melanoma", "Y"),
    ("CCOC(=O)/C(=C/c1ccc(C(=O)OC)cc1)N(CC)CC", "SK-MEL-5 melanoma", "Y"),
    ("Clc1cccc(NN=Nc2ccc(-c3nc4ccccc4s3)cc2)c1", "SK-MEL-5 melanoma", "Y"),
    ("COc1cc2c(c(O)c1OC)CC1CCC(=O)N1C2c1cccc2ccccc12 (stereo unspecified)", "SK-MEL-5 melanoma", "N"),
    ("CCOC(=O)C(=O)CC1=Nc2ccccc2SC(c2cccc(C)c2)C1 (stereo unspecified)", "SK-MEL-5 melanoma", "Y"),
    ("COc1c2c(c3ccccc3c1O)C1C=CC2C1 (stereo unspecified)", "SK-MEL-5 melanoma", "N"),
]

Next up:
Test whether the compound CSc1ccn(C2CC(F)C(CO)O2)c(=O)n1 (stereo unspecified) records TGI of 30 µM or higher.
Y
